- Target under test: T1, NHERF3_1, Q5T2W1
- T1 sequence (Q5T2W1 4-100, limits assumed, looked up): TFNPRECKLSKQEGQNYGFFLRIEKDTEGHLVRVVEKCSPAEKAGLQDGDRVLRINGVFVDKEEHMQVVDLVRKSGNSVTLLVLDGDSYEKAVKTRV
- Protocol: holdup assay
- Design: key: below the threshold = too weak to quantify, mostly under pKd 3.1 to 4
- Experimental context: plain residues with an end cap or a label only (N-terminal biotin on a linker: ado-ado)

{"Binder": "QSPANIYYKV [EFNB1, P52799]", "pKd": "below the threshold"}
{"Binder": "TPPAAKKSRI [BAZ1A, Q9NRL2]", "pKd": "below the threshold"}
{"Binder": "DDEDRLVIEI [ZNF831, Q5JPB2]", "pKd": "below the threshold"}
